- Test system: HepG2 cells
- TEST_PROTOCOL: cells
- Type: cell-based, human
- CONDITION_NOTES: 24 h
- Description: HepG2 and Caco-2 were tittered from a culture at 70–80% confluence. HepG2 and Caco-2 cells were seeded at 13,000 and 9,000 cells, respectively, in a clear flat bottom 96-well plate with dark walls (Corning, NY, USA). […] Cell viability was determined using CellTiter Blue™ (Promega, WI, USA), an assay based on the capacity of cells to reduce resazurin to resorufin, a fluorescent product whose intensity is proportional to the viable cells in the sample. […]
Examples of molecules with documented IC50 HepG2 follow.

{"RECORD_SMILES": "CC(C)[C@@H](CC(=O)N[C@@H](CCCCN)CC(N)=O)NC(=O)[C@H]1CCCC[C@@H]1NC(=O)C[C@H](CCCCN)NC(=O)C[C@@H](NC(=O)[C@H]1CCCC[C@@H]1NC(=O)C[C@H](CCCCN)NC(=O)C[C@@H](NC(=O)[C@H]1CCCC[C@@H]1N)C(C)C)C(C)C", "UNIT_ANNOTATION": "µg/mL", "IC50 HepG2": 38.75}
{"RECORD_SMILES": "CC(C)[C@@H](CC(=O)N[C@@H](CCCNC(=N)N)CC(=O)N[C@H](CC(=O)N[C@H](CC(=O)N[C@@H](CCCNC(=N)N)CC(=O)N[C@H](CC(=O)N[C@H](CC(=O)N[C@@H](CCCNC(=N)N)CC(N)=O)C(C)C)C(C)C)C(C)C)C(C)C)NC(=O)C[C@@H](NC(=O)C[C@@H](N)Cc1ccc(O)cc1)C(C)C", "UNIT_ANNOTATION": "µg/mL", "IC50 HepG2": 52.5}
{"RECORD_SMILES": "CC(C)[C@@H](CC(=O)N[C@@H](CCCNC(=N)N)CC(N)=O)NC(=O)[C@H]1CCCC[C@@H]1NC(=O)C[C@H](CCCNC(=N)N)NC(=O)C[C@@H](NC(=O)[C@H]1CCCC[C@@H]1NC(=O)C[C@H](CCCNC(=N)N)NC(=O)C[C@@H](NC(=O)[C@H]1CCCC[C@@H]1N)C(C)C)C(C)C", "UNIT_ANNOTATION": "µg/mL", "IC50 HepG2": 47.25}
{"RECORD_SMILES": "NCCCC[C@@H](CC(N)=O)NC(=O)C[C@H](Cc1ccccc1)NC(=O)[C@H]1CCCC[C@@H]1NC(=O)C[C@H](CCCCN)NC(=O)C[C@H](Cc1ccccc1)NC(=O)[C@H]1CCCC[C@@H]1NC(=O)C[C@H](CCCCN)NC(=O)C[C@H](Cc1ccccc1)NC(=O)[C@H]1CCCC[C@@H]1NC(=O)C[C@@H](N)Cc1ccc(O)cc1", "UNIT_ANNOTATION": "µg/mL", "IC50 HepG2": 42.5}
